Source listed as patent US10611775B2.

So I've got IC50 readings for PDE4D2 (Homo sapiens), take a look.
RESULT_TYPE: IC50 (nM)

Consider the reported IC50 for these compounds:
CCOc1cc(C(CS(C)(=O)=O)N2C(=O)c3csc(NC(C)=O)c3C2=O)ccc1OC (stereo not shown) [Example 3] : 224
CCOc1cc([C@H](CS(C)(=O)=O)N2C(=O)c3csc(N)c3C2=O)ccc1OC [Example 23] : 55

1 = COc1ccc(C(CS(C)(=O)=O)N2C(=O)c3cscc3C2=O)cc1OCc1ccccc1 (stereo not shown) [Example 9]
2 = CCOc1cc(C(CS(C)(=O)=O)N2C(=O)c3cscc3C2=O)ccc1OC (stereo not shown) [Example 4]
In: I need your help: which of the pair 1 , 2 has higher IC50? Answer format: the label of the selected item.
Out: 1
(1: 831 nM, 2: 329 nM)

---

- SYSTEM_NAME: PDE4B1 (Homo sapiens)
- Sequence (Q07343 whole entry): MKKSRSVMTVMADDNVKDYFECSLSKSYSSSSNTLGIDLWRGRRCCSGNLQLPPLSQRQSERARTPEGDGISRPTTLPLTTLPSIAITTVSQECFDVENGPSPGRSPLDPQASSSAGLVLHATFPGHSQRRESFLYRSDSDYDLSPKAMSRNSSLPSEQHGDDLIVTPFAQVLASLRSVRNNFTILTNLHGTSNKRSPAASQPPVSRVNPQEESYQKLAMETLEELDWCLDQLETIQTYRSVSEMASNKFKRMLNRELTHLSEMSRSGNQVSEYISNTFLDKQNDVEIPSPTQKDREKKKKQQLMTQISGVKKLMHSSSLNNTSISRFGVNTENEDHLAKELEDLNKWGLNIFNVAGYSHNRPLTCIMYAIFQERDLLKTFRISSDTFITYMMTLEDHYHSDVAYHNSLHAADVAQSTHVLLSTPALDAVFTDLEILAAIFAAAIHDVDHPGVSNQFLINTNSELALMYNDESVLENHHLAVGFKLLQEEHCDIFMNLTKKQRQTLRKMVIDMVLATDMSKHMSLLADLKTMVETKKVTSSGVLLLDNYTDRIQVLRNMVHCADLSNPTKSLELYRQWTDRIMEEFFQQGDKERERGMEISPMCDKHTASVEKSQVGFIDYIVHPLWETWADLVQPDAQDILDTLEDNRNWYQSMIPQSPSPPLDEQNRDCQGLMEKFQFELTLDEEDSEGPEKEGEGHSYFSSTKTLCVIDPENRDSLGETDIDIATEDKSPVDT
RESULT_TYPE: IC50 (nM)

CCOc1cc([C@@H](CS(C)(=O)=O)N2C(=O)c3csc([N+](=O)[O-])c3C2=O)ccc1OC : 26

1 = CCOc1cc([C@@H](CS(C)(=O)=O)N2C(=O)c3cscc3C2=O)ccc1OC
2 = CCOc1cc(C(CS(C)(=O)=O)N2C(=O)c3cscc3C2=O)ccc1OC (stereo not shown)
3 = CCOc1cc(C(CS(C)(=O)=O)N2C(=O)c3csc(NS(C)(=O)=O)c3C2=O)ccc1OC (stereo not shown)
In: Arrange these 3 compounds in increasing order of IC50. Hello, could you send the labels back in the order asked? Thank you.
Out: 3, 1, 2

---

- Tested on: TNFα release by PBMCs stimulated by LPS
- ASSAY_SUMMARY: Inhibition of TNFα release by mononuclear cells (PBMCs) stimulated by LPS
- Type: cell-based
- CONDITION_INFO: Homo sapiens, PBMC, compound 1 hour before LPS, further 20 hours, TNFα in supernate by ELISA
RESULT_TYPE: IC50 (nM)
Provide only the numeric value, understood in nM.

CCOc1cc([C@H](CS(C)(=O)=O)N2C(=O)c3cscc3C2=O)ccc1OC : 2500
CCOc1cc([C@@H](CS(C)(=O)=O)N2C(=O)c3cscc3C2=O)ccc1OC : 376
CCOc1cc(C(CS(C)(=O)=O)N2C(=O)c3csc(NS(C)(=O)=O)c3C2=O)ccc1OC (stereo not shown) : 288
CCOc1cc(C(CS(C)(=O)=O)N2C(=O)c3csc(NC(=O)CCl)c3C2=O)ccc1OC (stereo not shown) : 216
CCOc1cc(C(CS(C)(=O)=O)N2C(=O)c3cscc3C2=O)ccc1OC (stereo not shown) : 886
CCOc1cc(C(CS(C)(=O)=O)N2C(=O)c3csc(N)c3C2=O)ccc1OC (stereo not shown) : 524
CCOc1cc([C@H](CS(C)(=O)=O)N2C(=O)c3csc(N)c3C2=O)ccc1OC : 1900

Alright, here's another compound for you.
In: Report value: IC50, system: TNFα release by PBMCs stimulated by LPS, compound: COc1ccc(C(CS(C)(=O)=O)N2C(=O)c3cscc3C2=O)cc1OCc1ccccc1 (stereo not shown)
Out: 7500

---

- SYSTEM_NAME: PDE2A (Homo sapiens, UniProt O00408)
- Sequence (O00408 whole entry): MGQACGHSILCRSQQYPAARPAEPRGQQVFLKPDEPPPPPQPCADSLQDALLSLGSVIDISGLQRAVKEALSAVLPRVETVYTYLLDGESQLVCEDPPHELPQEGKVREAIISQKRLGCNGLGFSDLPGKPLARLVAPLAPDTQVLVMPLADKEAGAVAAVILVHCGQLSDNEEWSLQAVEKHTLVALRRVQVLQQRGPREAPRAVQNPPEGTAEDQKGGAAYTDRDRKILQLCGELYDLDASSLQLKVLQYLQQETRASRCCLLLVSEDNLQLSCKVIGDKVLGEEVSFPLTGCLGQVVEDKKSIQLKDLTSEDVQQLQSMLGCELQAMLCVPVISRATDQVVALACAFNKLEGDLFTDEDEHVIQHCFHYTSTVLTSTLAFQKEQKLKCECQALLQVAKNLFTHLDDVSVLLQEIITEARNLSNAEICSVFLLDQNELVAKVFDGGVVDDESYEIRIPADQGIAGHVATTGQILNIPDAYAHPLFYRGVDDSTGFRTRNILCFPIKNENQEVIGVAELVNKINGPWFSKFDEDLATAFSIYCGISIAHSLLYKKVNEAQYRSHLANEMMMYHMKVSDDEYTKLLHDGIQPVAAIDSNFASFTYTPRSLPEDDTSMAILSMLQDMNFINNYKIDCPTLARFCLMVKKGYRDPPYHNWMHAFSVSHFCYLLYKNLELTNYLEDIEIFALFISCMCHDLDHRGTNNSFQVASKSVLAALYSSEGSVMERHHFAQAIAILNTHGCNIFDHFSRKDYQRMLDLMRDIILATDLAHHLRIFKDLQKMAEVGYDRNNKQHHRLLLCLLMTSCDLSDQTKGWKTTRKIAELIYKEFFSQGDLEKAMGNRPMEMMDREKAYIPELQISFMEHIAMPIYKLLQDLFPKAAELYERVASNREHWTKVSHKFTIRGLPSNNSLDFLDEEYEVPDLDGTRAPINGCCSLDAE
RESULT_TYPE: pIC50
Just the number, please; pIC50 means minus log10 of the concentration in mol/L.

In: Identify pIC50 associated with the compound CCOc1cc(C(CS(C)(=O)=O)N2C(=O)c3csc(NC(C)=O)c3C2=O)ccc1OC (centres unmarked)
Out: 4.44
